test system: S. aureus; assay: Bactericidal (killing) efficacy in the presence of citrated human blood, S. aureus; format: cell-based; settings: Table II; 0.05%; 10 minutes

{"columns": ["COMPOUND", "Number of Cells Survived"],
 "data": [
  ["O=C(Nc1ccc(Br)cc1)c1cc(Br)cc(Br)c1O [Temasept IV, 3,4',5tribromosalicylanilide]", "4.0 × 10^8 cells"],
  ["CCCCCCCCCCCCC[N+](C)(C)Cc1ccccc1 [Benzalkonium chloride]", "1.0 × 10^5 cells"],
  ["O=C(Nc1ccc(Cl)cc1)Nc1ccc(Cl)c(Cl)c1 [3,4,4'-Chlorocarbanilide]", "5.2 × 10^7 cells"],
  ["CN(C)C1C(=O)C(C(N)=O)=C(O)C2(O)C(=O)C3=C(O)c4c(O)cccc4C(C)(O)C3CC12 (stereo not shown)", "4.1 × 10^8 cells"]
]}

----------
tested on: C. acnes; test: Bactericidal (killing) efficacy in the presence of citrated human blood, C. acnes; format: cell-based; settings: Table II; 0.0125%; 1 minute
OBSERVED PROPERTY: Number of Cells Survived

{"columns": ["STRUCTURE AS SMILES", "RESULT"],
 "data": [
  ["CC[C@H]1OC(=O)[C@H](C)[C@@H](O[C@H]2C[C@@](C)(OC)[C@@H](O)[C@H](C)O2)[C@H](C)[C@@H](O[C@@H]2O[C@H](C)C[C@H](N(C)C)[C@H]2O)[C@](C)(O)C[C@@H](C)C(=O)[C@H](C)[C@@H](O)[C@]1(C)O", "22 × 10^5 cells"],
  ["CO[C@H]1/C=C/O[C@@]2(C)Oc3c(C)c(O)c4c(O)c(c(/C=N/N5CCN(C)CC5)c(O)c4c3C2=O)NC(=O)/C(C)=C\\C=C\\[C@H](C)[C@H](O)[C@@H](C)[C@@H](O)[C@@H](C)[C@H](OC(C)=O)[C@@H]1C", "17 × 10^6 cells"],
  ["N=C(NCCCCCCNC(=N)NC(=N)Nc1ccc(Cl)cc1)NC(=N)Nc1ccc(Cl)cc1", "45 × 10^6 cells"],
  ["COC1=CC(=O)C[C@@H](C)[C@]12Oc1c(Cl)c(OC)cc(OC)c1C2=O", "94 × 10^5 cells"]
]}
